assay: Thermodynamic solubility; assay type: physicochemical; conditions: thermodynamic from solid; Termodinamic
READOUT_LABEL: solubility (µM)

// known answers, use as guide
COMPOUND	READOUT_LABEL	QUANTITATIVE_RESULT
CN(C)c1ccc(Nc2nc(-c3ccncc3)nc3c2CC(N)CC3)cc1 (stereo not shown) [Example E1.11]	solubility	452
Fc1ccccc1Nc1nc(-c2ccncc2)nc2c1CNCC2 [Example E2.7]	solubility	596

a = Fc1cccc(Nc2nc(-c3ccncc3)nc3c2CNCC3)c1 [Example E2.1]
b = Nc1ccc2nc(-c3ccncc3)nc(Nc3cccc(F)c3)c2c1
[in] // select label with min value of measured solubility from [ a , b ] Please indicate the selected item by its label.
[out] b
(b: 0.2 µM, a: 96 µM)

---

test: Stability in mouse plasma; format: in vitro ADME; settings: read-out: Stability (t 1/2) Mouse plasma
READOUT_LABEL: half-life

// known answers, use as guide
COMPOUND	half-life
Fc1cccc(Nc2nc(-c3ccncc3)nc3c2CNCC3)c1 [Example E2.1]	> 2 h
NC1CCc2nc(-c3ccncc3)nc(Nc3ccc(F)cc3)c2C1 (stereo not drawn) [Example E1.8]	> 2 h
CNc1cccc(Nc2nc(-c3ccncc3)nc3c2CNCC3)c1 [Example E2.4]	> 2 h
COc1cccc(Nc2nc(-c3ccncc3)nc3c2CNCC3)c1 [Example E2.2]	> 2 h
N[C@@H]1CCc2nc(-c3ccncc3)nc(Nc3cccc(F)c3)c2C1 (single isomer, unassigned) [Example E1.2]	> 2 h

Notebook: N[C@H]1CCc2nc(-c3ccncc3)nc(Nc3cccc(F)c3)c2C1 (single isomer, unassigned) [Example E1.3] , half-life read as > 2 h

Notebook: NC1CCc2nc(-c3ccncc3)nc(Nc3cccc(F)c3)c2C1 (stereo not drawn) [Example E1.1] , half-life read as > 2 h

Notebook: Cc1cccc(Nc2nc(-c3ccncc3)nc3c2CC(N)CC3)c1 (stereo not drawn) [Example E1.4] , half-life read as > 2 h

Notebook: NC1CCc2nc(-c3cccnc3)nc(Nc3cccc(F)c3)c2C1 (stereo not drawn) [Example E1.10] , half-life read as > 2 h

---

tested on: A549; assay: Cell activity (cancer cell proliferation), A549; format: cell-based; conditions: Homo sapiens
READOUT_LABEL: IC50 (µM)

// known answers, use as guide
MOLECULE	IC50, µM
NC1CCc2nc(-c3cccnc3)nc(Nc3cccc(F)c3)c2C1 (stereo not shown) [Example E1.10]	21.3
COc1cccc(Nc2nc(-c3ccncc3)nc3c2CC(N)CC3)c1 (stereo not shown) [Example E1.5]	26.2
CNc1cccc(Nc2nc(-c3ccncc3)nc3c2CC(N)CC3)c1 (stereo not shown) [Example E1.7]	33.4

1 = Cc1cccc(Nc2nc(-c3ccncc3)nc3c2CC(N)CC3)c1 (stereo not shown) [Example E1.4]
2 = COc1cccc(Nc2nc(-c3ccncc3)nc3c2CNCC3)c1 [Example E2.2]
3 = Nc1cccc(Nc2nc(-c3ccncc3)nc3c2CC(N)CC3)c1 (stereo not shown) [Example E1.6]
4 = Nc1ccc2nc(-c3ccncc3)nc(Nc3cccc(F)c3)c2c1
[in] Task for the reader: rank each entry by its IC50, from the minimum upward. Give me the labels in the order the question wants.
[out] 4, 1, 2, 3

---

tested on: A549; assay: Cell activity (cancer cell proliferation), A549; assay type: cell-based; conditions: Homo sapiens
READOUT_LABEL: IC50 (µM)

COMPOUND	UNITS_SYMBOL	IC50
Nc1cccc(Nc2nc(-c3ccncc3)nc3c2CNCC3)c1 [Example E2.3]	µM	513
CNc1cccc(Nc2nc(-c3ccncc3)nc3c2CNCC3)c1 [Example E2.4]	µM	61.9

P = NC1CCc2nc(-c3ccncc3)nc(Nc3ccc(O)cc3)c2C1 (centres unmarked) [Example E1.9]
Q = Fc1cccc(Nc2nc(-c3ccncc3)nc3c2CNCC3)c1 [Example E2.1]
R = CN(C)c1cccc(Nc2nc(-c3ccncc3)nc3c2CNCC3)c1 [Example E2.5]
[in] Arrange these compounds by their IC50, starting with the largest number. Give me the labels in the order the question wants.
[out] P, R, Q
(P: 74.5 µM, R: 40.8 µM, Q: 23.7 µM)

---

experiment: Stability in mouse liver microsomes; format: in vitro ADME; conditions: read-out: Stability (t 1/2) Mouse liver microsomes
READOUT_LABEL: half-life (min)

COMPOUND	UNITS_SYMBOL	QUANTITATIVE_RESULT
Fc1ccccc1Nc1nc(-c2ccncc2)nc2c1CNCC2 [Example E2.7]	min	30

A = Nc1ccc2nc(-c3ccncc3)nc(Nc3cccc(F)c3)c2c1
B = Fc1cccc(Nc2nc(-c3ccncc3)nc3c2CNCC3)c1 [Example E2.1]
[in] API: POST /compare with A and B ; response names the item with higher half-life. Please indicate the selected item by its label.
[out] B
(B: 39 min, A: 22 min)

---

test: Kinetic solubility; type: physicochemical; settings: kinetic from dmso stock
Below: a set of entries, each annotated with reported solubility kinetic.

// known answers, use as guide
COMPOUND	solubility kinetic
Nc1cccc(Nc2nc(-c3ccncc3)nc3c2CNCC3)c1 [Example E2.3]	> 250 µM
NC1CCc2nc(-c3ccncc3)nc(Nc3ccc(F)cc3)c2C1 (stereo not drawn) [Example E1.8]	> 250 µM
Cc1cccc(Nc2nc(-c3ccncc3)nc3c2CC(N)CC3)c1 (stereo not drawn) [Example E1.4]	249 µM
N[C@@H]1CCc2nc(-c3ccncc3)nc(Nc3cccc(F)c3)c2C1 (single isomer, unassigned) [Example E1.2]	> 250 µM
CN(C)c1ccc(Nc2nc(-c3ccncc3)nc3c2CC(N)CC3)cc1 (stereo not drawn) [Example E1.11]	> 250 µM
Nc1ccc2nc(-c3ccncc3)nc(Nc3cccc(F)c3)c2c1 [Example E3]	17 µM
COc1cccc(Nc2nc(-c3ccncc3)nc3c2CC(N)CC3)c1 (stereo not drawn) [Example E1.5]	> 250 µM
N[C@H]1CCc2nc(-c3ccncc3)nc(Nc3cccc(F)c3)c2C1 (single isomer, unassigned) [Example E1.3]	> 250 µM

Consider the additional compound presented here.
Notebook: Fc1ccccc1Nc1nc(-c2ccncc2)nc2c1CNCC2 [Example E2.7] , solubility kinetic read as > 250 µM

---

Below: a set of entries, each annotated with reported half-life.
test: Stability in mouse plasma; assay type: in vitro ADME; conditions: read-out: Stability (t 1/2) Mouse plasma

COMPOUND	RESULT
Nc1cccc(Nc2nc(-c3ccncc3)nc3c2CNCC3)c1 [Example E2.3]	> 2 h
CN(C)c1cccc(Nc2nc(-c3ccncc3)nc3c2CNCC3)c1 [Example E2.5]	> 2 h
COc1cccc(Nc2nc(-c3ccncc3)nc3c2CC(N)CC3)c1 (stereo not drawn) [Example E1.5]	> 2 h
Nc1ccc2nc(-c3ccncc3)nc(Nc3cccc(F)c3)c2c1	1.48 h
CN(C)c1ccc(Nc2nc(-c3ccncc3)nc3c2CC(N)CC3)cc1 (stereo not drawn) [Example E1.11]	> 2 h

Consider the additional compound presented here.
Notebook: Fc1ccccc1Nc1nc(-c2ccncc2)nc2c1CNCC2 [Example E2.7] , half-life read as > 2 h

---

test system: A375; assay: Cell activity (cancer cell proliferation), A375; format: cell-based; settings: Homo sapiens, A-375
READOUT_LABEL: IC50 (µM)

P = Nc1ccc2nc(-c3ccncc3)nc(Nc3cccc(F)c3)c2c1 [Example E3]
Q = Fc1cccc(Nc2nc(-c3ccncc3)nc3c2CNCC3)c1 [Example E2.1]
[in] API: POST /compare with P and Q ; response names the item with higher IC50. Please indicate the selected item by its label.
[out] Q

---

target: human type II topoisomerase (topo II); experiment: Topo II inhibitory activity; format: biochemical
pIC50: −log10 of the molar value.
READOUT_LABEL: pIC50

MOLECULE	TARGET_SYSTEM	pIC50
Fc1cccc(Nc2nc(-c3ccncc3)nc3c2CNCC3)c1 [Example E2.1]	human type II topoisomerase (topo II)	4.60

A = CNc1cccc(Nc2nc(-c3ccncc3)nc3c2CNCC3)c1 [Example E2.4]
B = Fc1ccccc1Nc1nc(-c2ccncc2)nc2c1CNCC2 [Example E2.7]
C = Nc1ccc2nc(-c3ccncc3)nc(Nc3cccc(F)c3)c2c1
[in] Arrange these molecules by their pIC50, starting with the largest number. Give me the labels in the order the question wants.
[out] B, C, A

1 = CN(C)c1ccc(Nc2nc(-c3ccncc3)nc3c2CC(N)CC3)cc1 (centres unmarked) [Example E1.11]
2 = COc1cccc(Nc2nc(-c3ccncc3)nc3c2CNCC3)c1 [Example E2.2]
3 = Oc1ccc(Nc2nc(-c3ccncc3)nc3c2CNCC3)cc1 [Example E2.6]
[in] Task for the reader: rank each entry by its pIC50, from the minimum upward. Give me the labels in the order the question wants.
[out] 3, 2, 1

---

target: human type II topoisomerase (topo II); experiment: Topo II inhibitory activity
pIC50: −log10 of the molar value.
READOUT_LABEL: pIC50

COMPOUND	QUANTITATIVE_RESULT
Nc1cccc(Nc2nc(-c3ccncc3)nc3c2CNCC3)c1 [Example E2.3]	3.82
Cc1cccc(Nc2nc(-c3ccncc3)nc3c2CC(N)CC3)c1 (stereo not shown) [Example E1.4]	3.70
CN(C)c1cccc(Nc2nc(-c3ccncc3)nc3c2CNCC3)c1 [Example E2.5]	3.85
